biological target: FGFR1 (UniProt P11362); experiment: phosphorylation enrichment, bacterial display (enrichment ratio); higher = better substrate or ligand; peptides without Tyr show the background;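 also: 11-residue human phosphosite peptides and single-mutation variants displayed on the E. coli surface, counted by deep sequencing, each peptide's frequency after selection divided by its frequency in the unselected input library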;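 also: frequency after pTyr selection over input frequency; kinase dosed for 20-30% of maximal phosphorylation in three min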
Sequence (P11362 whole entry, looked up): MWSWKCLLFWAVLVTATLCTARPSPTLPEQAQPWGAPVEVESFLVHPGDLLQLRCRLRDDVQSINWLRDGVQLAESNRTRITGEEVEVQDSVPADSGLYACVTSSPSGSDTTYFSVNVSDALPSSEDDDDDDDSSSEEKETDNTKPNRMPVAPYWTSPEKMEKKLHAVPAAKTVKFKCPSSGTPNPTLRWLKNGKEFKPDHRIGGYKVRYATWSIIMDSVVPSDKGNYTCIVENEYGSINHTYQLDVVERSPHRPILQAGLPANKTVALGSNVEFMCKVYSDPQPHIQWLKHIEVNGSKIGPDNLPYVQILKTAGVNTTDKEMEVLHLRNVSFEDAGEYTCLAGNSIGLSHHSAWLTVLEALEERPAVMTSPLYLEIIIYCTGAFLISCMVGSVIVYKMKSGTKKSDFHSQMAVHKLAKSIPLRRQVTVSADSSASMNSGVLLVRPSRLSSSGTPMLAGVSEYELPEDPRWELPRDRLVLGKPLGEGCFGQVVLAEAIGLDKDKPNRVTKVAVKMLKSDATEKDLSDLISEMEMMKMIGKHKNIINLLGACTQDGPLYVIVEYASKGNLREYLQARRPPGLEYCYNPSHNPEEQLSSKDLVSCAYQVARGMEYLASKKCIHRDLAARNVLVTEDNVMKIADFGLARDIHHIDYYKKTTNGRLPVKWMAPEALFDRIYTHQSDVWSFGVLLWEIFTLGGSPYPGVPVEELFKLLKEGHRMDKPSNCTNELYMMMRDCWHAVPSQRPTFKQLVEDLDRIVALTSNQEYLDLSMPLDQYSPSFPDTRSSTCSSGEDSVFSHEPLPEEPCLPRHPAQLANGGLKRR

- Sequence: "FFVVEYRDQKP [MUC17_Y4332_YF]"
  phosphorylation enrichment: 0.612
- Sequence: "SDMGQYQCLVF [AXL_Y115_T112M]"
  phosphorylation enrichment: 2.05
- Sequence: "IKAGAYDFPSP [CAMK2A_Y230]"
  phosphorylation enrichment: 0.397
- Sequence: "GGDGSYVSVPS [TNNI3K_Y425]"
  phosphorylation enrichment: 0.419
- Sequence: "NTADYYDLYGG [PTPN11_Y63_G60A]"
  phosphorylation enrichment: 16.2
- Sequence: "TSNQEYLDVSM [FGFR1_Y766_L769V]"
  phosphorylation enrichment: 1.24
- Sequence: "KGTAGYTTVAV [RET_Y752_R749T]"
  phosphorylation enrichment: 0.327
- Sequence: "YKWAVYCIIGR [NUP93_Y391_R388W]"
  phosphorylation enrichment: 0.527
- Sequence: "NGQALYAACQT [XDH_Y1092_V1091L]"
  phosphorylation enrichment: 0.554
- Sequence: "FFVVEYRNQKP [MUC17_Y4332_D4334N_YF]"
  phosphorylation enrichment: 0.581
- Sequence: "SISLKYEGRVF [ABL1_Y167_R166K_YF]"
  phosphorylation enrichment: 0.482
- Sequence: "QTSTDYDIRFF [CSNK2A1_Y131_L128S_YF]"
  phosphorylation enrichment: 0.667
- Sequence: "QWLEQYTQAIE [LSP1_Y234]"
  phosphorylation enrichment: 0.489
- Sequence: "SVVAPYEPPEV [TP53_Y220_V218A]"
  phosphorylation enrichment: 0.528
- Sequence: "RQQEVYLLFKQ [RARRES1_Y159_D158V_YF]"
  phosphorylation enrichment: 0.789
- Sequence: "TLQVMYGCDVG [HLA-B_Y123_S121V]"
  phosphorylation enrichment: 0.596
- Sequence: "ARRMEYLASQK [FGFR2_Y616_G613R]"
  phosphorylation enrichment: 0.372
- Sequence: "VATRWYWSPEL [CDKL5_Y177_R178W]"
  phosphorylation enrichment: 5.92
- Sequence: "VVLVSYVPSSQ [SH2B1_Y624]"
  phosphorylation enrichment: 0.506
- Sequence: "RSRSPYSSRHS [CDK13_Y415]"
  phosphorylation enrichment: 0.701
- Sequence: "RSSGGYEPRGR [FUS_Y239]"
  phosphorylation enrichment: 0.555
- Sequence: "GIVEDYRPPFC [ACVRL1_Y421_Y426C]"
  phosphorylation enrichment: 0.598
- Sequence: "EEQKKYFNATK [SCN5A_Y1494_M1498T_YF]"
  phosphorylation enrichment: 0.49
- Sequence: "QKPLDYYRVNL [GALE_Y104]"
  phosphorylation enrichment: 17.8
- Sequence: "ECIEFYELDKK [PMM2_Y145_R141C]"
  phosphorylation enrichment: 0.569
- Sequence: "GMSQAYSFSQR [DES_Y5_S7F]"
  phosphorylation enrichment: 0.392
- Sequence: "HFIKLYEEKTG [PARP1_Y618_M615I]"
  phosphorylation enrichment: 0.456
- Sequence: "PPGRSYSPFDF [TNS1_Y793_YF]"
  phosphorylation enrichment: 0.505
- Sequence: "LNGDRYFKGIV [DCX_Y64_R59L]"
  phosphorylation enrichment: 4.77

Data provenance is the supplement of paper PMC10065799.
